Molecular target: AtPPO1 S305L Y362F G404A (SEQ ID NO.129) (Arabidopsis thaliana, UniProt P55826, G404A/S305L/Y362F)
Construct: made in house; host or cells: E. coli BL21 (DE3) hemG, crude extract
Sequence (P55826 35-537 S305L/Y362F/G404A): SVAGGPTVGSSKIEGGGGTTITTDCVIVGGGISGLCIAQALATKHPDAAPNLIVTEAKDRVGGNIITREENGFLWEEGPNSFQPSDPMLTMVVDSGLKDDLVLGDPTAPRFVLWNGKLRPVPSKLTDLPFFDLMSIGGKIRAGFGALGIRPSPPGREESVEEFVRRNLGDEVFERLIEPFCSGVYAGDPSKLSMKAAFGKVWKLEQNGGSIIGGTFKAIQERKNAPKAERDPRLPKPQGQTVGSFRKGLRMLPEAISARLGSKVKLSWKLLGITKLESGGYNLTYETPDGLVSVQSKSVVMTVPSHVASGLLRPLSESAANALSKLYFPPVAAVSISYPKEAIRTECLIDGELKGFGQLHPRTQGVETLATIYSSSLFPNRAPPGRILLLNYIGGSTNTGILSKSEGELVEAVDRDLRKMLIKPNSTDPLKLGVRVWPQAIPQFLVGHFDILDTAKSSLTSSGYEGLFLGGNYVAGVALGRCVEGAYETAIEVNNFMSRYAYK
Experiment: fluorescent Protoporphyrinogen Oxidase assay, crude extract
Format: biochemical
Conditions: read-out: percentage inhibition
Attribute: inhibition at 100 ppm
State the answer as a number, implicitly in %.

Use these answered entries as a reference point.
[
  {
    "compound": "CCOC(=O)COc1ncccc1Oc1cc(-n2c(=O)cc(C(F)(F)F)n(C)c2=O)c(F)cc1Cl [Herbicide A, epyrifenacil]",
    "inhibition at 100 ppm / %": 100
  },
  {
    "compound": "CCOC(=O)[C@]1(C)CC(c2cc(-n3c(=O)n(C)c(=S)n(C)c3=O)c(F)cc2Cl)=NO1 [Herbicide D]",
    "inhibition at 100 ppm / %": 96
  },
  {
    "compound": "C#CCN1C(=O)C(F)(F)Oc2cc(F)c(-n3c(=O)n(C)c(=S)n(C)c3=O)cc21 [Herbicide B, trifludimoxazin]",
    "inhibition at 100 ppm / %": 100
  },
  {
    "compound": "CC(C)N(C)S(=O)(=O)NC(=O)c1cc(-n2c(=O)cc(C(F)(F)F)n(C)c2=O)c(F)cc1Cl [Herbicide E, saflufenacil]",
    "inhibition at 100 ppm / %": 100
  }
]

Attention now shifts to the item below.
Consider CCOC(=O)C1(C)CC(c2cc(-n3c(=O)cc(C(F)(F)F)n(C)c3=O)c(F)cc2Cl)=NO1 (centres unmarked) [Herbicide C] . Its measured inhibition at 100 ppm is 100

====

target: AtPPO1 S305L V365M (SEQ ID NO.128) (Arabidopsis thaliana, UniProt P55826, S305L/V365M); construct: made in house; host or cells: E. coli BL21 (DE3) hemG, crude extract; assay: fluorescent Protoporphyrinogen Oxidase assay, crude extract; assay type: biochemical; conditions: read-out: percentage inhibition
inhibition at 1 ppm of 70% or higher: yes (1). Under 70%: no (0).

Is reported inhibition at 1 ppm greater than or equal to 70% here: C#CCN1C(=O)C(F)(F)Oc2cc(F)c(-n3c(=O)n(C)c(=S)n(C)c3=O)cc21 [Herbicide B, trifludimoxazin]
yes (1)

Is reported inhibition at 1 ppm greater than or equal to 70% here: CCOC(=O)COc1ncccc1Oc1cc(-n2c(=O)cc(C(F)(F)F)n(C)c2=O)c(F)cc1Cl [Herbicide A, epyrifenacil]
no (0)

Is reported inhibition at 1 ppm greater than or equal to 70% here: CCOC(=O)C1(C)CC(c2cc(-n3c(=O)cc(C(F)(F)F)n(C)c3=O)c(F)cc2Cl)=NO1 (centres unmarked) [Herbicide C]
yes (1)

Is reported inhibition at 1 ppm greater than or equal to 70% here: CCOC(=O)[C@]1(C)CC(c2cc(-n3c(=O)n(C)c(=S)n(C)c3=O)c(F)cc2Cl)=NO1 [Herbicide D]
yes (1)
